readout_name: melting point

Below are worked cases with known answers.
{"molecule": "COc1ccc(C2=NN(c3ccc4ncsc4c3)C(=O)[C@@H]3CC=CC[C@H]23)cc1Cl (relative stereo)", "melting point": "156 to 157 °C"}
{"molecule": "COc1ccc(C2=NN(CCCCOc3ccc(C(=O)O)cc3)C(=O)[C@H]3CC=CC[C@@H]23)cc1Cl (relative stereo)", "melting point": "169 to 171 °C"}
{"molecule": "COc1ccc(C2=NN(C3CCN(C(=O)N4CCNC4=O)CC3)C(=O)[C@H]3CC=CC[C@@H]23)cc1Cl (relative stereo)", "melting point": "216 to 218 °C"}
{"molecule": "COc1ccc(C2=NN(C3CCN(C(C)=O)CC3)C(=O)[C@@H]3CC=CC[C@H]23)cc1Cl (relative stereo)", "melting point": "206 to 208 °C"}

Look at this molecule and give its reported melting point. COc1ccc(C2=NN(c3ccc(C(=O)O)cc3)C(=O)[C@H]3CC=CC[C@@H]23)cc1F (relative stereo)
201 to 203 °C

Look at this molecule and give its reported melting point. COc1ccc(C2=NN(C3CCN(S(=O)(=O)c4ccc(C)cc4)CC3)C(=O)[C@H]3CC=CC[C@@H]23)cc1Cl (relative stereo)
198 to 199 °C

Look at this molecule and give its reported melting point. COc1ccc(C2=NN(c3ccc4[nH]ncc4c3)C(=O)[C@H]3CC=CC[C@@H]23)cc1Cl.Cl (relative stereo)
196 to 197 °C

Look at this molecule and give its reported melting point. COc1ccc(C2=NN(c3ccc4c(c3)COC4=O)C(=O)[C@H]3CC=CC[C@@H]23)cc1Cl (relative stereo)
212 to 213 °C

Look at this molecule and give its reported melting point. COc1ccc(C2=NN(CCCCn3ccnc3)C(=O)[C@H]3CC=CC[C@@H]23)cc1Cl.Cl (relative stereo)
217 to 219 °C

---

- system_under_test: PDE7A1 (Homo sapiens, UniProt Q13946)
- Construct: made in house; host or cells: SF21 insect cells (baculovirus, pCRBac)
- Sequence (Q13946 whole entry): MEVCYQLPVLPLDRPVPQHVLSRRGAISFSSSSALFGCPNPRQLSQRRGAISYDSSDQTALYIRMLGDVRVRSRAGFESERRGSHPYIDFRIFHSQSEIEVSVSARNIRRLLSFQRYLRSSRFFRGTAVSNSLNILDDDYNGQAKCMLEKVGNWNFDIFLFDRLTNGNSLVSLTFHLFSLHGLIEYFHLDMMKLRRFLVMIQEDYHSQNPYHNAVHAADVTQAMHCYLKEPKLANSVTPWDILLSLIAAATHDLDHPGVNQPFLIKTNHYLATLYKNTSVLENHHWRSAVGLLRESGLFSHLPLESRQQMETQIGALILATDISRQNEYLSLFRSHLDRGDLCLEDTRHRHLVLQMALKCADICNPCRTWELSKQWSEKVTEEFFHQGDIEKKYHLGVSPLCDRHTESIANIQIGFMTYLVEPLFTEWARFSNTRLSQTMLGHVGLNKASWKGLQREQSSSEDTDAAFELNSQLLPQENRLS
- procedure_text: Inhibition of PDE7 activity, [3H]cAMP SPA enzyme assay with recombinant PDE7A1
- Assay type: biochemical
- condition_notes: recombinant PDE7A1 from SF21 insect cells, 0.5 μM cAMP, read-out: PDE7 −logIC50 (converted)
- Text: Method for Measuring Inhibition of PDE4 and PDE7 Activities The cDNA for PDE7A1 (Genebank Acc. No. L12052) was isolated, using RT-PCR, from total cellular RNA derived from the T cell line CCRF-CEM and cloned into the cloning vector pCR2.1 (invitrogen, Groningen, NL) under standard conditions (the manufacturer's instructions). For expression in insect cells, the cDNA was subcloned into the baculo expression vector pCRBac (invitrogen, Groningen, NL). […]
Response field label: string, one of yes (IC50 strictly below 90 nM) or no.

Please review the entries below; each comes with its answer.
{"molecule": "COc1ccc(C2=NN(C3CCN(C(C)=O)CC3)C(=O)[C@@H]3CC=CC[C@H]23)cc1Cl (relative stereo)", "discrete_label": "no"}
{"molecule": "COc1ccc(C2=NN(c3ccc(C(=O)O)cc3)C(=O)[C@H]3CC=CC[C@@H]23)cc1F (relative stereo)", "discrete_label": "no"}
{"molecule": "COc1ccc(C2=NN(C3CCN(Cc4ccncc4)CC3)C(=O)[C@H]3CC=CC[C@@H]23)cc1Cl.Cl (relative stereo) [Compound 4, hydrochloride]", "discrete_label": "yes"}

# ---- query molecule ----
Answer whether the molecule COc1ccc(C2=NN(c3ccc(C(=O)N4CCN(CCN(C)C)CC4)cc3)C(=O)[C@H]3CC=CC[C@@H]23)cc1Cl.Cl.Cl (relative stereo) [Compound 5, dihydrochloride] has IC50 strictly less than 90 nM
yes

---

- system_under_test: PDE4D3 (Homo sapiens)
- Construct: made in house; host or cells: SF21 insect cells (baculovirus, pBacPak9)
- procedure_text: Inhibition of PDE4 activity, [3H]cAMP SPA enzyme assay with recombinant PDE4D3
- Assay type: biochemical
- condition_notes: recombinant PDE4D3 from SF21 insect cells, 0.5 μM cAMP, read-out: PDE4 −logIC50 (converted)
IC50 values for the molecules below.
Give your result in nM as a bare value.

Below are worked cases with known answers.
{"molecule": "COc1ccc(C2=NN(c3ccc4[nH]ncc4c3)C(=O)[C@H]3CC=CC[C@@H]23)cc1Cl.Cl (relative stereo) [Compound 9, hydrochloride]", "readout_name": "IC50", "meas_value": 2.57}
{"molecule": "COc1ccc(C2=NN(CCCCOc3ccc(C(=O)O)cc3)C(=O)[C@H]3CC=CC[C@@H]23)cc1Cl (relative stereo) [Compound 12]", "readout_name": "IC50", "meas_value": 6.46}
{"molecule": "COc1ccc(C2=NN(C3CCN(C(=O)N4CCOCC4)CC3)C(=O)[C@H]3CC=CC[C@@H]23)cc1Cl (relative stereo) [Compound 1]", "readout_name": "IC50", "meas_value": 2.29}
{"molecule": "COc1ccc(C2=NN(C3CCN(C(C)=O)CC3)C(=O)[C@@H]3CC=CC[C@H]23)cc1Cl (relative stereo) [Compound 3]", "readout_name": "IC50", "meas_value": 5.62}
{"molecule": "COc1ccc(C2=NN(CCCCn3ccnc3)C(=O)[C@H]3CC=CC[C@@H]23)cc1Cl.Cl (relative stereo) [Compound 11, hydrochloride]", "readout_name": "IC50", "meas_value": 0.891}

Look at this molecule and give its reported IC50. COc1ccc(C2=NN(c3nc(-c4cccs4)ns3)C(=O)[C@H]3CC=CC[C@@H]23)cc1Cl (relative stereo) [Compound 18]
23.4

---

- system_under_test: PDE4D3 (Homo sapiens, UniProt Q08499)
- Construct: made in house; host or cells: SF21 insect cells (baculovirus, pBacPak9)
- Sequence (Q08499 1-673 isoform Q08499-2): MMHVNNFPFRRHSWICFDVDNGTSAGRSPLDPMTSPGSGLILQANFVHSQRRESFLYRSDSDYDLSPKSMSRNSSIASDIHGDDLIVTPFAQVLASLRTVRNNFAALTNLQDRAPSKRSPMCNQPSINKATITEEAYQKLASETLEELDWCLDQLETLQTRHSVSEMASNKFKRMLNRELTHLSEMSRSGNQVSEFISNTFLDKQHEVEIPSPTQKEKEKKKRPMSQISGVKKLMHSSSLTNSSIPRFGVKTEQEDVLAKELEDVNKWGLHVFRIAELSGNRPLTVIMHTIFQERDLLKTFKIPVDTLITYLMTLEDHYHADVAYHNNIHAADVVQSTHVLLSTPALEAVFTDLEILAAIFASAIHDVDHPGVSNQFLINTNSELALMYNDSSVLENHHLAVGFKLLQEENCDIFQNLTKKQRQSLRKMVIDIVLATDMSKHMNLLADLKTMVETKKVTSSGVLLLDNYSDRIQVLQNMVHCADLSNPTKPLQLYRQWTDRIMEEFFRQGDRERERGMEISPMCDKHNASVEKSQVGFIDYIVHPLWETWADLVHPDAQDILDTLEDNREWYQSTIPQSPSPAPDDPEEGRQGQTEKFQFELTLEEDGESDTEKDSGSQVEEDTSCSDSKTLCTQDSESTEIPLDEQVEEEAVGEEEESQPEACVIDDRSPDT
- procedure_text: Inhibition of PDE4 activity, [3H]cAMP SPA enzyme assay with recombinant PDE4D3
- Type: biochemical
- condition_notes: recombinant PDE4D3 from SF21 insect cells, 0.5 μM cAMP, read-out: PDE4 −logIC50 (converted)
readout_name: IC50

{"compound": "COc1ccc(C2=NN(c3ccc4c(c3)COC4=O)C(=O)[C@H]3CC=CC[C@@H]23)cc1Cl (relative stereo) [Compound 8]", "system_under_test": "PDE4D3 (Homo sapiens, UniProt Q08499)", "IC50": "8.91 nM"}
{"compound": "COc1ccc(C2=NN(c3ccc4ncsc4c3)C(=O)[C@@H]3CC=CC[C@H]23)cc1Cl (relative stereo) [Compound 7]", "system_under_test": "PDE4D3 (Homo sapiens, UniProt Q08499)", "IC50": "8.13 nM"}
{"compound": "COc1ccc(C2=NN(C3CCN(S(=O)(=O)c4ccc(C)cc4)CC3)C(=O)[C@H]3CC=CC[C@@H]23)cc1Cl (relative stereo) [Compound 2]", "system_under_test": "PDE4D3 (Homo sapiens, UniProt Q08499)", "IC50": "3.98 nM"}
{"compound": "COc1ccc(C2=NN(C3CCN(Cc4ccncc4)CC3)C(=O)[C@H]3CC=CC[C@@H]23)cc1Cl.Cl (relative stereo) [Compound 4, hydrochloride]", "system_under_test": "PDE4D3 (Homo sapiens, UniProt Q08499)", "IC50": "2.45 nM"}
{"compound": "COc1ccc(C2=NN(c3cc(C)c4c(C)nn(C)c4n3)C(=O)[C@H]3CC=CC[C@@H]23)cc1Cl (relative stereo) [Compound 17]", "system_under_test": "PDE4D3 (Homo sapiens, UniProt Q08499)", "IC50": "21.9 nM"}

Look at this compound and give its reported IC50. COc1ccc(C2=NN(C3CCCC3)C(=O)[C@H]3CC=CC[C@@H]23)cc1Cl (relative stereo) [Compound 10]
0.776 nM

Look at this compound and give its reported IC50. COc1ccc(C2=NN(c3ccc(C(=O)N4CCN(CCN(C)C)CC4)cc3)C(=O)[C@H]3CC=CC[C@@H]23)cc1Cl.Cl.Cl (relative stereo) [Compound 5, dihydrochloride]
13.8 nM

Look at this compound and give its reported IC50. COc1ccc(C2=NN(c3ccc(C(=O)O)cc3)C(=O)[C@H]3CC=CC[C@@H]23)cc1F (relative stereo) [Compound 13]
45.7 nM

---

melting point values for the molecules below.

{"molecule": "COc1ccc(C2=NN(c3ccc(C(=O)N4CCN(CCN(C)C)CC4)cc3)C(=O)[C@H]3CC=CC[C@@H]23)cc1Cl.Cl.Cl (relative stereo)", "melting point": "198 to 201 °C"}
{"molecule": "COc1ccc(C2=NN(c3ccc(C(=O)O)cc3)C(=O)[C@H]3CC=CC[C@@H]23)cc1Cl (relative stereo)", "melting point": "222 to 224 °C"}

Now look at this entry.
Look at this molecule and give its reported melting point. COc1ccc(C2=NN(C3CCN(Cc4ccncc4)CC3)C(=O)[C@H]3CC=CC[C@@H]23)cc1Cl.Cl (relative stereo)
244 °C (dec.)
